Target: HLA-A*24:03
Test: IEDB peptide-MHC binding, purified MHC/competitive/fluorescence; filed as Kd, often an IC50 or EC50 that approximates it; bounds were set here for any values at or beyond the usual limits of such assays
Details: source organism: Entamoeba histolytica HM-1:IMSS
pKd: −log10 of the molar value.
observable: pKd

- LICYQIEYI: ≤ 4.70

###

Target: HLA-A*11:01
Assay: IEDB peptide-MHC binding, purified MHC/competitive/fluorescence; filed as Kd, often an IC50 or EC50 that approximates it; bounds were set here for any values at or beyond the usual limits of such assays
Details: source organism: Pseudomonas aeruginosa UCBPP-PA14
observable: Kd (µM)

• AVFDGCVVY = 0.0306

Reference source for all entries: the Immune Epitope Database (IEDB)
